Record set of IC50 for target or system HER2 WT (Homo sapiens).
experimental readout: IC50

                                    molecule  experimental_readout   measured_result
 0  Cc1ccc(Oc2ccc(Nc3ncnc4sc5c(c34)CCN(C(=O)/C=C/CN3CC=CCC3)C5)cc2C)cn1                  IC50          < 100 nM
 1  C=CC(=O)N1Cc2sc3ncnc(Nc4ccc(Oc5ccc(C)nc5)c(C)c4)c3c2C(C)C1 (single isomer, unassigned) [Compound 145]                  IC50          < 100 nM
 2  COc1ccc(Oc2ccc(Nc3ncnc4sc5c(c34)CCN(C(=O)/C=C/CN(C)C)CC5)cc2C)cn1                  IC50    100 to 1000 nM
 3  Cc1cc(Nc2ncnc3sc4c(c23)CCN(C(=O)/C=C/CN2CCOC[C@@H]2C)C4)ccc1Oc1ccc2ncnn2c1                  IC50    100 to 1000 nM
 4  Cc1ccc(Oc2ccc(Nc3ncnc4sc5c(c34)CCN(C(=O)/C=C/CN3CCn4cc(C(F)(F)F)nc4C3)C5)cc2C)cn1                  IC50  1000 to 10000 nM
 5  Cc1cn2ccc(Oc3ccc(Nc4ncnc5sc6c(c45)CCN(C(=O)/C=C/CN(C)C)C6)cc3C)cc2n1                  IC50    100 to 1000 nM
 6  Cc1ccc(Oc2ccc(Nc3ncnc4sc5c(c34)CCN(C(=O)/C=C/CN3CC4CCC(C3)O4)C5)cc2C)cn1                  IC50          < 100 nM
 7  CCN1CCN(C/C=C/C(=O)N2CCc3c(sc4ncnc(Nc5ccc(Oc6ccc(C)nc6)c(C)c5)c34)C2)CC1                  IC50    100 to 1000 nM
 8  Cc1ccc(Oc2ccc(Nc3ncnc4sc5c(c34)CCN(C(=O)/C=C/CN3CC4CC(C3)O4)C5)cc2C)cn1                  IC50          < 100 nM
 9  Cc1ccc(Oc2ccc(Nc3ncnc4sc5c(c34)CCN(C(=O)/C=C/CNC3COC3)C5)cc2C)cn1                  IC50          < 100 nM
10  Cc1ncc(Oc2ccc(Nc3ncnc4sc5c(c34)CCN(C(=O)/C=C/CN(C)C)C5)cc2C)cn1                  IC50    100 to 1000 nM
11  Cc1ccc(Oc2ccc(Nc3ncnc4sc5c(c34)CCN(C(=O)/C=C/CN[C@H]3CC[C@H](OC4CC4)CC3)C5)cc2C)cn1                  IC50          < 100 nM
12  Cc1ccc(Oc2ccc(Nc3ncnc4sc5c(c34)CCN(C(=O)/C=C/CN(C)C)CC5)cc2C)cn1                  IC50    100 to 1000 nM
13  COc1ccc(Oc2ccc(Nc3ncnc4sc5c(c34)C(C)CN(C(=O)C=CCN(C)C)C5)cc2C)cn1 (single isomer, unassigned)                  IC50    100 to 1000 nM

---

molecular target: HER2YVMA (Homo sapiens, UniProt P04626, INS775YVMA); experiment: Enzymatic assay HER2YVMA (method b); assay type: biochemical; set-up: purchased Viva biotech, Shanghai, China custom purification; conditions: [HER2YVMA]=5 nM, [ATP]=25 μM, [Peptide 22]=1 μM
Sequence (P04626 with tags, fused parts or gaps INS775YVMA): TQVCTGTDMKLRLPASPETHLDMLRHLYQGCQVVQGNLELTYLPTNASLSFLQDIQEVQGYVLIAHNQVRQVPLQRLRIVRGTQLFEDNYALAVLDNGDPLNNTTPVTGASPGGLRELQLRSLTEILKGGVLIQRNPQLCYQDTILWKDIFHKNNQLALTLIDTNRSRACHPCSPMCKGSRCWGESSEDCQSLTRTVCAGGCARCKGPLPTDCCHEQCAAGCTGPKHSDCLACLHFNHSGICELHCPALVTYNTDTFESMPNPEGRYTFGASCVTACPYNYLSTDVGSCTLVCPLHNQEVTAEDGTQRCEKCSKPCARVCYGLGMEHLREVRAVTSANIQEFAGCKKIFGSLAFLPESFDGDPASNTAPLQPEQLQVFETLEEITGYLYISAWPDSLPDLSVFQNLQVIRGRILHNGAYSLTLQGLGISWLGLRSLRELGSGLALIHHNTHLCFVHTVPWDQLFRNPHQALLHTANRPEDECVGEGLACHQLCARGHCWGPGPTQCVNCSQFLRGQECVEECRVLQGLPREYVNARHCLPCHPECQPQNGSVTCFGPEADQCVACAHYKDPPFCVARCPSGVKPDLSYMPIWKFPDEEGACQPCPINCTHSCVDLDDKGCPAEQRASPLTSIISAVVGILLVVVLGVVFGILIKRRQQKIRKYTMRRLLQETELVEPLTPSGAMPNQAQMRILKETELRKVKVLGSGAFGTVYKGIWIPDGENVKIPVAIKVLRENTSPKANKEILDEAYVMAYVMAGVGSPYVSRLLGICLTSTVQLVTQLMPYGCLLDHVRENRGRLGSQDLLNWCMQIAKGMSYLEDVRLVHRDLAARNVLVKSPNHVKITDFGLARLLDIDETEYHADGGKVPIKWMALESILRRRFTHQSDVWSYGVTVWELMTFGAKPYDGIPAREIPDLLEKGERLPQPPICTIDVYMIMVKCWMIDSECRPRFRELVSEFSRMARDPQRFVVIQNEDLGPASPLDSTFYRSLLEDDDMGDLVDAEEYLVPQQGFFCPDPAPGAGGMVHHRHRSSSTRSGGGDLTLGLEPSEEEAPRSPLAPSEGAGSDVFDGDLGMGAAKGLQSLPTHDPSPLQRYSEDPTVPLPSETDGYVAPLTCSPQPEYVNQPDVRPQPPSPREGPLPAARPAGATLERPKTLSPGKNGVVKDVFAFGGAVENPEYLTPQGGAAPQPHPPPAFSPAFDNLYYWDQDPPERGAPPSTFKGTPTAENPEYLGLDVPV
pIC50: −log10 of the molar value.
Listing of entries alongside the reported pIC50.
experimental readout: pIC50

>>> df
                                   compound  experimental_readout  measured_result
0  Cc1ccc(Oc2ccc(Nc3ncnc4sc5c(c34)CCN(C(=O)/C=C/CN3CC[C@H](F)C3)C5)cc2C)cn1 [Compound 124]                 pIC50           > 7.00
1  Cc1ccc(Oc2ccc(Nc3ncnc4sc5c(c34)CCN(C(=O)/C=C/CN3C4CCC3CC4)C5)cc2C)cn1 [Compound 44]                 pIC50           > 7.00
2  Cc1ccc(Oc2ccc(Nc3ncnc4sc5c(c34)CCN(C(=O)/C=C/CN3CCN4CCC3CC4)C5)cc2C)cn1 [Compound 116]                 pIC50     5.00 to 6.00
3  Cc1ccc(Oc2ccc(Nc3ncnc4sc5c(c34)CCN(C(=O)/C=C/CN[C@H]3CC[C@H](OC4CC4)CC3)C5)cc2C)cn1 [Compound 68]                 pIC50           > 7.00
4  Cc1ccc(Oc2ccc(Nc3ncnc4sc5c(c34)CN(C(=O)/C=C/CN(C)C)C5)cc2C)cn1 [Compound 99]                 pIC50           > 7.00
5  Cc1ccc(Oc2ccc(Nc3ncnc4sc5c(c34)C(C)CN(C(=O)C=CCN(C)C(C)(C)C)C5)cc2C)cn1 (single isomer, unassigned) [Compound 178]                 pIC50     6.00 to 7.00
6  C#CCOCCN(C)C/C=C/C(=O)N1CCc2c(sc3ncnc(Nc4ccc(Oc5ccc(C)nc5)c(C)c4)c23)C1 [Compound 139]                 pIC50           > 7.00
